Below are IC50 values for UniProt P21397 collected from several publications.
Sequence (P21397 whole entry): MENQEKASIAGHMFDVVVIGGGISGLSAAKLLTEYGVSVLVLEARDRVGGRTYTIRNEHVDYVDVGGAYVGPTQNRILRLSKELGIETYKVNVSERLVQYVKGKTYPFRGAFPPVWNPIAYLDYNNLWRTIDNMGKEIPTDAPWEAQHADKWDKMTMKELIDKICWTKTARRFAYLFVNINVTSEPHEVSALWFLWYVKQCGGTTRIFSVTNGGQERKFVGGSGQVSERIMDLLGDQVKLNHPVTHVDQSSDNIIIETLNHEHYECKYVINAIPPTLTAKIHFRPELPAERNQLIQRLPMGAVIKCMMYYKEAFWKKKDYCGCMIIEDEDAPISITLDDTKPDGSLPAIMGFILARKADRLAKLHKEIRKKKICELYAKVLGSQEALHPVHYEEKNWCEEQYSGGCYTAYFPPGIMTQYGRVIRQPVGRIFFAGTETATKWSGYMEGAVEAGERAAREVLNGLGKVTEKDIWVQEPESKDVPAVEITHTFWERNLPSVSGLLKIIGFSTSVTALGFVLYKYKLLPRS

Solved cases below.
CCN(c1cc(-c2ccc([C@@H]3C[C@H]3N(CC3CCOCC3)C(=O)OC(C)(C)C)cc2)cc(C(=O)NCc2c(C)cc(C)[nH]c2=O)c1C)C1CCOCC1 (racemic) | 1.54 µM
COc1cccc(NC(=O)c2ccc3c(c2)OCCO3)c1 | > 40 µM
OCc1c(Br)c(O)c(O)c(Br)c1Br | 205 µM
O=C(Nc1ccc(Cl)c(Cl)c1)c1ccccc1 | > 40 µM
COc1ccc(NC(=O)c2ccc3c(c2)OCCO3)cc1Cl | > 40 µM
NC(=O)Cc1nc2cc(OCc3ccc(Cl)cc3)ccc2[nH]1 | 31.3 µM

## Input # returns recorded IC50 (system: UniProt P21397) for O=C(Nc1cccc(Cl)c1)c1ccccc1
## Output > 40 µM

## Input Short answer please: IC50, UniProt P21397, entry O=C(Nc1ccc2c(c1)OCCO2)c1ccc(Cl)c(Cl)c1
## Output > 40 µM

## Input # value lookup — system UniProt P21397, readout IC50, item Cc1cc(C)c(-c2ncc3c(cc(CN4CC[C@H](N)C4)n3C(C)C)c2-c2ccc(C#N)c(F)c2)cc1C
## Output > 20 µM

## Input GET /values?readout=IC50&system=UniProt P21397&item= O=C(Nc1nc2ccc(O)cc2s1)C1CCCCC1
## Output 1.92 µM

## Input Reported IC50 for UniProt P21397, given O=C(Nc1ccccc1)c1ccc2c(c1)OCO2 ?
## Output > 40 µM
